Target: Histone deacetylase 3 (Homo sapiens, UniProt O15379)
Sequence (O15379 whole entry): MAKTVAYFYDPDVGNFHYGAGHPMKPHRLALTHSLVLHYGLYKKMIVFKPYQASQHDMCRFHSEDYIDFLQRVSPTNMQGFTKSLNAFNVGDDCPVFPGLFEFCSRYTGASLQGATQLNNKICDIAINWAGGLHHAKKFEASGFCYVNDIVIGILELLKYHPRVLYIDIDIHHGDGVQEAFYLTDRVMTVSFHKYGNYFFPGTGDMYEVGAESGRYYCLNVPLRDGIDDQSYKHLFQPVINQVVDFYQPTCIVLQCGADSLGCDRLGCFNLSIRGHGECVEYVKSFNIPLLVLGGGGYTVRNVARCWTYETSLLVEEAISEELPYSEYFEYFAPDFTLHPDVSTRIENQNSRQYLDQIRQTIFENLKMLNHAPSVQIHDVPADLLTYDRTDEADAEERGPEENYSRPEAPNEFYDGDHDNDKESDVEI
Test: Inhibition of recombinant HDAC3 (unknown origin) measured after 30 mins by fluorescence assay
Value kind: IC50

Asked: Data request, read-out IC50, for `Cc1cc(-c2ccc(/C=C3\C(=O)N(c4ccc(C(=O)O)cc4)N=C3C3CC3)s2)c(C(F)(F)F)cc1C`
Given back: > 100 µM

* * *

Molecular target: Histone deacetylase 2 (Homo sapiens)
Sequence (Q92769 whole entry): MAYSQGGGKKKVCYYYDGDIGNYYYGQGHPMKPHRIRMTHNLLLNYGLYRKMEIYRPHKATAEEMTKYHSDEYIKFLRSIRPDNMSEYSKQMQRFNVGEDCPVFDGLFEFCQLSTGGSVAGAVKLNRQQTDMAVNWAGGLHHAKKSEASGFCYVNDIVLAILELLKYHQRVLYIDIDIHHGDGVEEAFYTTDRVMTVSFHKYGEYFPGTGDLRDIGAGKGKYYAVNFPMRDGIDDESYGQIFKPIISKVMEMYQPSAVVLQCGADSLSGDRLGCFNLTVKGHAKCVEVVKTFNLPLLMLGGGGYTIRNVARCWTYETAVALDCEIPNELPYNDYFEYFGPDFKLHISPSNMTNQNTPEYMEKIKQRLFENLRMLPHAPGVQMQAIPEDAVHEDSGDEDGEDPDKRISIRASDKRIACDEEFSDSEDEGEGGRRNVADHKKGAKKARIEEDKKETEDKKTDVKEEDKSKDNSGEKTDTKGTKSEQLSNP
Assay: Inhibition of recombinant HDAC2 (unknown origin) measured after 30 mins by fluorescence assay
Value kind: IC50

Asked: Could you share which IC50 value was measured for `Cc1cc(-c2ccc(/C=C3\C(=O)N(c4ccc(C(=O)O)cc4)N=C3C3CC3)s2)c(C(F)(F)F)cc1C` ?
Given back: > 100 µM

* * *

Kindly state pIC50 for each of the entries shown.
Target: Histone acetyltransferase p300 (Homo sapiens, UniProt Q09472)
Sequence (Q09472 whole entry, the tested form may be a part): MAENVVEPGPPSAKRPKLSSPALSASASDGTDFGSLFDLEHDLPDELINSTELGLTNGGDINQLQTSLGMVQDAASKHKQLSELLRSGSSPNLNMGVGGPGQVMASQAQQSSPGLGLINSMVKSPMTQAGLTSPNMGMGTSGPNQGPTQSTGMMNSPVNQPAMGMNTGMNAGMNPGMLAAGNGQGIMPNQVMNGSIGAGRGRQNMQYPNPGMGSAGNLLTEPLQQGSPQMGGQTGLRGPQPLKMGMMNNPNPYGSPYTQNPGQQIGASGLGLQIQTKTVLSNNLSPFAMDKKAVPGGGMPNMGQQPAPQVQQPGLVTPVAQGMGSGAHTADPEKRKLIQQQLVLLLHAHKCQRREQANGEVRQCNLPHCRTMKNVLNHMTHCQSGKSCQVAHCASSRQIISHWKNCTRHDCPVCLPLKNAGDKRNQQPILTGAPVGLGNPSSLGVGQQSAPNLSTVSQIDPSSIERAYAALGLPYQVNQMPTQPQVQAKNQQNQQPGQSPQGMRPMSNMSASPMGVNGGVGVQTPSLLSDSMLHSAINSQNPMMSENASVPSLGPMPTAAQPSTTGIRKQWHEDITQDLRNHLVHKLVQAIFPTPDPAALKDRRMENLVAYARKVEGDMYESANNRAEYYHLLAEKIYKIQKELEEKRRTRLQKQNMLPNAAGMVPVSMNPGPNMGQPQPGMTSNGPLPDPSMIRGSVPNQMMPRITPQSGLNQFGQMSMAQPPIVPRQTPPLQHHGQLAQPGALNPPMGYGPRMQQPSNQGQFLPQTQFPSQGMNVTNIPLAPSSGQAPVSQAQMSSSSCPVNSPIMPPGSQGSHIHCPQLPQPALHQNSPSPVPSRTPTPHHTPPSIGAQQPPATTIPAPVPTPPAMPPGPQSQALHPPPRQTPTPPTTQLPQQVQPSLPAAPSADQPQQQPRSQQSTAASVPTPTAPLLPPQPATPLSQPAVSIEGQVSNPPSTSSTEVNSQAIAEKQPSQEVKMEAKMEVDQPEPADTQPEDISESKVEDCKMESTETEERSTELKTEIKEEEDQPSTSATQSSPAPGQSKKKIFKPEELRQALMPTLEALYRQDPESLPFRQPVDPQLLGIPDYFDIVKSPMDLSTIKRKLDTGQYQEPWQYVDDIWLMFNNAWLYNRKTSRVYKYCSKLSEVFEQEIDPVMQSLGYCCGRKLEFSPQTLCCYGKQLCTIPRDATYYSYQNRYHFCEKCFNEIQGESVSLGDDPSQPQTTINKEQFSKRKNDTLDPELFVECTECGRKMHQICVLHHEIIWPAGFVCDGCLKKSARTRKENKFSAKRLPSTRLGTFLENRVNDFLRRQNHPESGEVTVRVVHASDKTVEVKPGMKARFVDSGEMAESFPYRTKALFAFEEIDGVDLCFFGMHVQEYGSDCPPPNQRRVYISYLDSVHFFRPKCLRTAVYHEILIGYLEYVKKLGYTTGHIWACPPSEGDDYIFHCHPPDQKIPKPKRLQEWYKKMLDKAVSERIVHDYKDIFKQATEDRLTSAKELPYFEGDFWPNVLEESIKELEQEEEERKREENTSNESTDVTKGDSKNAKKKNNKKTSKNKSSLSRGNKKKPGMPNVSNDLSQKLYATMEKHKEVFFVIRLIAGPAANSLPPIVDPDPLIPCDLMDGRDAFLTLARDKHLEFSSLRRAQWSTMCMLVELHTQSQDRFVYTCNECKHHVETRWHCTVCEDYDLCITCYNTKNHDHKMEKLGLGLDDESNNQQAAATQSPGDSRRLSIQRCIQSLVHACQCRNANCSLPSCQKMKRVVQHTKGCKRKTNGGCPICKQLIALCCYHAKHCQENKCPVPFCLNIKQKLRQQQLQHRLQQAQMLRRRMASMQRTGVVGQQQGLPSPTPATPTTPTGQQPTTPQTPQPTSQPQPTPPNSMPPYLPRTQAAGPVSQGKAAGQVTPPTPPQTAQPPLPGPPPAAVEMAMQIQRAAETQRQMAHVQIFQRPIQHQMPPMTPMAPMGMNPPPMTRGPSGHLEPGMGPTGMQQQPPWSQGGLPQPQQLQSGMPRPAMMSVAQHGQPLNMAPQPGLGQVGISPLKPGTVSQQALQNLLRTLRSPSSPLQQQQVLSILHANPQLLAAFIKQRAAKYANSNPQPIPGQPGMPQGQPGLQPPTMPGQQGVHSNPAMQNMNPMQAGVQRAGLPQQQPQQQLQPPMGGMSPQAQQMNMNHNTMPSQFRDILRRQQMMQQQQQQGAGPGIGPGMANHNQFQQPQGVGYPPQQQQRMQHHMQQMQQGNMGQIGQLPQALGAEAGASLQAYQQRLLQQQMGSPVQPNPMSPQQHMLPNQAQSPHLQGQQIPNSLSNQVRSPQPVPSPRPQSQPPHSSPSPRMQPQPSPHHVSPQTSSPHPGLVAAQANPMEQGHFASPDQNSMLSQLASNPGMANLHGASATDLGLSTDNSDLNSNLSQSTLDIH
Experiment: Inhibition of p300 (unknown origin) using biotinylated histone H3 (1 to 21 residues) as substrate measured after 90 mins in presence of Acetyl CoA by AlphaLISA assay
Numbers only, as −log10 of the molar value.

Here's what some known entries look like.
Smiles code: CC1=NN(c2ccc(C(=O)O)cc2)C(=O)/C1=C\c1ccc(-c2cccc3c2C(=O)CC3)o1
Value kind: pIC50
Recorded measurement: 6.24

Smiles code: CCC1=NN(c2ccc(C(=O)O)cc2)C(=O)/C1=C\c1ccc(-c2cc(C)c(C)cc2[N+](=O)[O-])o1
Value kind: pIC50
Recorded measurement: 6.72

Now for another entry.
Asked: Query pIC50 on Histone acetyltransferase p300 (Homo sapiens, UniProt Q09472) for `CC1=NN(c2ccc(C(=O)O)cc2)C(=O)/C1=C\c1ccc(-c2ccccc2C(F)F)o1`
Given back: 5.93

* * *

Molecular target: Histone acetyltransferase p300 (Homo sapiens)
Test: Inhibition of p300 (unknown origin) using biotinylated histone H3 (1 to 21 residues) as substrate measured after 90 mins in presence of Acetyl CoA by AlphaLISA assay
Value kind: IC50

Compound: CC1=NN(c2ccc(P(=O)(O)O)cc2)C(=O)/C1=C\c1ccc(-c2cc(C)c(C)cc2[N+](=O)[O-])o1
IC50: 0.47 µM
//
Compound: Cc1cc(Cc2ccc3c(cnn3-c3ccc(C(=O)O)cc3)c2)c([N+](=O)[O-])cc1C
IC50: > 10 µM
//
Compound: CC1=NN(c2ccc(C(=O)O)cc2)C(=O)C1CC(=O)Nc1cc(C)c(C)cc1[N+](=O)[O-] (stereo not drawn)
IC50: 9.61 µM

Batch request: IC50 for each of the following compounds.
1. CC1=NN(c2cc(F)c(O)c(F)c2)C(=O)/C1=C\c1ccc(-c2ccccc2OC(F)(F)F)o1
2. CC1=NN(c2cc(F)c(O)c(F)c2)C(=O)/C1=C\c1ccc(-c2cc(C)c(C)cc2C(F)(F)F)o1
3. Cc1cc(C(=O)c2ccc3c(cnn3-c3ccc(C(=O)O)cc3)c2)c([N+](=O)[O-])cc1C
4. Cc1cc(-c2ccc(/C=C3\C(=O)N(c4ccc(C(=O)O)cc4)N=C3C3CC3)o2)c([N+](=O)[O-])cc1C
5. CC1=NN(c2cc(F)c(O)c(F)c2)C(=O)/C1=C\c1ccc(-c2cccc3c2C(=O)CC3)o1

Given back:
["> 10 µM", "7.31 µM", "> 10 µM", "0.2 µM", "3.73 µM"]
